- System Under Test: Adenosine receptor A3 (Homo sapiens) (UniProt P0DMS8)
- Sequence (P0DMS8 whole entry): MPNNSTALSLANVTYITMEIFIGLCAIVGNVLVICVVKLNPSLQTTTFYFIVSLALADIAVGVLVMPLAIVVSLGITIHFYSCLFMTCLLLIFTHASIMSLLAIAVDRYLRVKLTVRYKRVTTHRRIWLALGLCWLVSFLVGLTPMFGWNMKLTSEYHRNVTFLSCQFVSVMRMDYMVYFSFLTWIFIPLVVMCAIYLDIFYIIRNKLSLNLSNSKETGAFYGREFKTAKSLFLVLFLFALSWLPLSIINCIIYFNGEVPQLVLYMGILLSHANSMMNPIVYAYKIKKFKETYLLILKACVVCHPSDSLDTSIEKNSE
- Assay Overview: Displacement of [3H]PSB-11 from human adenosine A3 receptor expressed in CHO cell membranes at 1 uM relative to control
Readout Label: inhibition (%)

Consider the reported inhibition for these molecules:
{"Line Notation": "CCCn1c(=O)c2c(nc3n2CCCN3CCc2ccc(OCC(=O)NCCCN3CCCC3)cc2)n(CCC)c1=O", "Readout Label": "inhibition", "Meas Value": 33}
{"Line Notation": "CCCn1c(=O)c2c(nc3n2CCCN3CCc2ccc(OCC(=O)NCc3cccc(OC)c3)cc2)n(CCC)c1=O", "Readout Label": "inhibition", "Meas Value": 28}
{"Line Notation": "CCCCn1c(=O)c2c(nc3n2CCCN3CCc2ccc(OCC(=O)NCc3cccc(OC)c3)cc2)n(CCCC)c1=O", "Readout Label": "inhibition", "Meas Value": 41}
{"Line Notation": "CCCn1c(=O)c2c(nc3n2CCCN3CCc2ccc(OCC(=O)NCCc3ccc(S(N)(=O)=O)cc3)cc2)n(CCC)c1=O", "Readout Label": "inhibition", "Meas Value": 28}
{"Line Notation": "CCCCn1c(=O)c2c(nc3n2CCCN3CCc2ccc(OCC(=O)NCCc3ccccn3)cc2)n(CCCC)c1=O", "Readout Label": "inhibition", "Meas Value": 44}

1: CCCCn1c(=O)c2c(nc3n2CCCN3CCc2ccc(OCC(=O)NCc3ccc(F)cc3)cc2)n(CCCC)c1=O
2: CCCCn1c(=O)c2c(nc3n2CCCN3CCc2ccc(OCC(=O)NCc3ccc(Cl)cc3)cc2)n(CCCC)c1=O
// query Which of the two gives a bigger number for inhibition: 1 or 2 ? Kindly state the label of the option you pick.
// result 1

* * *

- Assay Overview: Solubility of compound in water after over night incubation by UV spectroscopic method
- Format: physicochemical
Readout Label: solubility (µM)

Take a look at these entries with their results.
{"Line Notation": "CCCCn1c(=O)c2c(nc3n2CCCN3CCc2ccc(OCC(=O)NCCCN(CC)CC)cc2)n(CCCC)c1=O", "Readout Label": "solubility", "Meas Value": 632}
{"Line Notation": "CCCn1c(=O)c2c(nc3n2CCCN3CCc2ccc(OCC(=O)NCCN(CC)CC)cc2)n(CCC)c1=O", "Readout Label": "solubility", "Meas Value": 1080}

I: CCCn1c(=O)c2c(nc3n2CCCN3CCc2ccc(OCC(=O)NCCCN(CC)CC)cc2)n(CCC)c1=O
II: CCCCn1c(=O)c2c(nc3n2CCCN3CCc2ccc(OCC(=O)NCCN(CC)CC)cc2)n(CCCC)c1=O
// query Higher solubility between I and II ? Mark your selection by writing its label.
// result I

* * *

- System Under Test: Adenosine receptor A2b (Homo sapiens)
- Sequence (P29275 whole entry): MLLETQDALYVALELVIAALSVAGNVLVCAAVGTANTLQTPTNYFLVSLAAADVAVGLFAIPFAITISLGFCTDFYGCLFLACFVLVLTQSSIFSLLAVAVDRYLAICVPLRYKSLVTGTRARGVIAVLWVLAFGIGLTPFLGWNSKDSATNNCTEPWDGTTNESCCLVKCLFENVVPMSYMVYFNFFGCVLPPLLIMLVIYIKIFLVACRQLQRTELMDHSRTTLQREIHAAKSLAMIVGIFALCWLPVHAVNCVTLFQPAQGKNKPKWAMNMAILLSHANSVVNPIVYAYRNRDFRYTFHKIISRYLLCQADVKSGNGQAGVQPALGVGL
- Assay Overview: […] from human adenosine A2B receptor expressed in CHO cell membranes
- Condition Context: in the assay text read “[3H]PSB-603” for “[3H]PSB-602”
Readout Label: Ki (nM)

a: CCCCn1c(=O)c2c(nc3n2CCCN3CCc2ccc(OCC(=O)NCc3ccccc3)cc2)n(CCCC)c1=O
b: CCCCn1c(=O)c2c(nc3n2CCCN3CCc2ccc(OCC(=O)NCCCNC3CCCCC3)cc2)n(CCCC)c1=O
// query Which of these two has the smaller recorded Ki: a or b ? # reply format: chosen label
// result b
(b: 215 nM, a: 578 nM)

The measurements presented in this section are drawn from ChEMBL document CHEMBL4257504.
